System: Mycobacterium tuberculosis
assay_comment: Antibacterial activity against Mycobacterium tuberculosis H37Rv after 5 to 7 days by alamar blue assay
Format: functional
Documented MIC across a set of compounds

structure_as_smiles: COC(=O)/C=C1\Nc2ccc(F)cc2OC1=O
inequality_symbol: =
MIC (µg/mL): 0.63
//
structure_as_smiles: COC(=O)/C=C1\Nc2cc(C)ccc2OC1=O
inequality_symbol: >
MIC (µg/mL): 100
//
structure_as_smiles: COC(=O)/C=C1\Nc2cc(F)ccc2OC1=O
inequality_symbol: =
MIC (µg/mL): 0.63
//
structure_as_smiles: COC(=O)/C=C1\Nc2ccccc2NC1=O
inequality_symbol: >
MIC (µg/mL): 100
//
structure_as_smiles: COC(=O)/C=C1\Nc2cc(Cl)ccc2OC1=O
inequality_symbol: =
MIC (µg/mL): 5
//
structure_as_smiles: COC(=O)/C=C1\Nc2ccc([N+](=O)[O-])cc2OC1=O
inequality_symbol: >
MIC (µg/mL): 100
//
structure_as_smiles: COC(=O)/C=C1\Nc2ccccc2SC1=O
inequality_symbol: >
MIC (µg/mL): 100
//
structure_as_smiles: COC(=O)/C=C1\Nc2ccc(Cl)cc2OC1=O
inequality_symbol: =
MIC (µg/mL): 0.63
